# Tested on: SR leukemia
# MEASUREMENT_PROTOCOL: NCI-60 one-dose screen, 48 h
# ASSAY_CONTEXT: 10 µM unless noted
About 83,000 compounds went through this panel and 20% of them were active in at least one assay; those are over-represented in the sample as a whole. Calls of active or inactive are those of the source. The calls were made as follows: active = growth percent below 10; inactive = the rest.
Outcomes: active, inactive

# COMPOUND, ASSIGNED_CLASS
records = [
    ("CCCc1cc(CCC)n2nc(N)nc2n1", "inactive"),
    ("CN1CCN(CC(=O)N(C)c2ccc(N=C(c3ccccc3)c3c(O)[nH]c4ccc([N+](=O)[O-])cc34)cc2)CC1", "inactive"),
    ("COc1ccc(CNc2c3ccccc3nc3ccccc23)cc1OC", "active"),
    ("Cc1oc2ccc(O)c(CN3CCCCCC3)c2c1C(=O)Nc1ccc(C(F)(F)F)cc1", "active"),
    ("COc1cc(OCc2cccc(-c3ccc4c(c3)OCCO4)c2C)cc(OC)c1C=O", "inactive"),
    ("COc1cc2c(c(OC)c1OC)CCC(c1cccc(NC(=O)c3cccc(Cl)c3)c1)O2 (stereo not given)", "inactive"),
    ("COc1cc(C(=O)n2nc(NCCCc3ccccc3)c3cc(N)ccc32)cc(OC)c1OC", "inactive"),
    ("O=C1/C(=C/c2cccc(Br)c2)COc2ccc(O)c(O)c21", "inactive"),
    ("O=C(COc1ccc(/C=C2\\Oc3ccccc3C2=O)cc1)Nc1nccs1", "active"),
    ("CCCC[N+]1(C)CCN=C1Cc1ccccc1 (stereo not given)", "inactive"),
]

----------
# Tested on: MCF7 breast
# MEASUREMENT_PROTOCOL: NCI-60 one-dose screen, 48 h
# ASSAY_CONTEXT: 10 µM unless noted
# Procedure: Growth inhibition of the MCF7 human tumor cell line is measured as a screen for anti-cancer activity. Cells are grown in 96 well plates and exposed to the test compound for 48 hours. Compounds are tested at a single concentration, which is 10^-5 M for most compounds. The reported endpoint is percent growth (GI% or GIPRCNT), where numbers from 0 - 100% represent growth inhibition, and numbers from -100% - 0 represent cell death. For example, a value of 40 represents 60% growth inhibition. […]
Compounds without any hit were thinned out: in the full panel of roughly 83,000, 20% have a hit. The source made the active and inactive calls. Rule for the calls: active = growth percent below 10; inactive = the rest.
Outcomes: active, inactive

# COMPOUND, ASSIGNED_CLASS
data = [
    ("Cc1[nH]c(C(=O)Nc2ccccc2OC2CCNC2)c(Cl)c1Cl (stereo not given)", "inactive"),
    ("COc1cc2cc(Oc3ccc(NC(=O)Nc4ccc(Cl)c(Cl)c4)cc3)c(C)nc2cc1OCCN1CCCCC1", "inactive"),
    ("C/C(=N\\NC(=O)c1ccc(C(C)(C)C)cc1)c1ccc(O)cc1O", "active"),
    ("N#CC1=C(N)Oc2c(ccc3ccccc23)C1c1cc2ccccc2n2nnnc12 (stereo not given)", "active"),
    ("Cn1ncc(CC(=O)O)c1-n1nnc2cc(Cl)ccc2c1=O", "inactive"),
    ("CCn1c2ccccc2c2cc(C(O)c3cccc4ncccc34)ccc21 (stereo not given)", "inactive"),
    ("COc1ccc(C(=O)/C=C/Nc2cc(-c3ccccc3)nn2-c2ccccc2)cc1", "inactive"),
    ("COc1ccc(C(c2cc(OC)c(OC)c(OC)c2)n2cncn2)cc1O (stereo not given)", "inactive"),
    ("O=C1c2cccnc2C(=O)c2c1c(C(=O)OCCCN1CCOCC1)c1ccccn21", "active"),
    ("O=C1c2ccccc2-c2c1c1ccncc1c(=O)n2CCCn1ccnc1", "active"),
]

----------
# Test system: MDA-MB-435 melanoma
# MEASUREMENT_PROTOCOL: NCI-60 one-dose screen, 48 h (100 = growth as untreated, 0 = no growth, -100 = all killed)
# ASSAY_CONTEXT: 10 µM unless noted
This is part of a sample that, as a whole, favours compounds with a hit. Of some 83,000 tested, about 20% had one in any assay.

# COMPOUND, growth (%)
measured = [
    ("Cn1cc(-c2ccc3occ(-c4cccc(-c5ccncc5)c4)c3n2)cn1", -2.73),
    ("O=C(/C=C/c1ccc([N+](=O)[O-])cc1)c1cccc(Nc2nc(Nc3ccccc3)nc(Nc3ccccc3)n2)c1", 91.7),
    ("COc1cc2c(c(OC)c1OC)CCC(c1cccc(NC(=O)c3cccc(Cl)c3)c1)O2 (centres undefined)", 89.9),
    ("O=C(CSc1nc(-c2ccccc2)cn1-c1ccc(Cl)cc1)c1ccc([N+](=O)[O-])cc1", 83.5),
    ("COc1cc2c(c(OC)c1OC)CCC(c1cccc(C(=O)Nc3ccccc3Br)c1)O2 (centres undefined)", 94),
    ("COc1cccc(C2C3=C(COC3=O)N(CCO)c3cc4c(cc32)OCCO4)c1 (centres undefined)", -28.2),
    ("COc1cc(C(=O)/C=C/c2c(-c3cccs3)nc3sc(C)cn23)cc(OC)c1OC", -15.1),
    ("C=C1CC[C@@H]2[C@](C)(COC(C)=O)[C@H](OC(C)=O)CC[C@@]2(C)[C@@H]1CC(Nc1ccc(S(=O)(=O)Nc2nccc(C)n2)cc1)C1=CCOC1=O (some centres undefined)", 0.231),
    ("COc1cccc(C(=O)Nc2cccc(NC(=O)c3ccccn3)c2)c1", 93.2),
]

----------
# Tested on: MCF7 breast
# MEASUREMENT_PROTOCOL: NCI-60 one-dose screen, 48 h (100 = growth as untreated, 0 = no growth, -100 = all killed)
# ASSAY_CONTEXT: 10 µM unless noted
About 83,000 compounds went through this panel and 20% of them were active in at least one assay; those are over-represented in the sample as a whole. Active and inactive are the calls of the source. How the source made its calls: active means growth percent below 10; inactive means the rest.

# COMPOUND, growth
data = [
    ("O=c1[nH]c(CN2CCN(c3ccccc3)CC2)nc2c(Br)cc(Br)cc12", "110% (inactive)"),
    ("Cc1ccc2c(n1)C[C@H](C(C)(C)O)CC[C@H]2C", "94.6% (inactive)"),
    ("CCN1C(=O)N(CC)C2C1NN=c1s/c(=C\\c3ccc(F)cc3)c(=O)n12 (stereo unspecified)", "18.2% (inactive)"),
    ("CC1OC(C(=O)N2CCN(CCO)CC2)CC1COC1CCCCC1 (stereo unspecified)", "103% [50 µM] (inactive)"),
    ("O=C1/C(=C/c2cccc(Br)c2)COc2ccc(O)c(O)c21", "6.49% (active)"),
    ("CCCC[N+]1(C)CCN=C1Cc1ccccc1 (stereo unspecified)", "100% (inactive)"),
    ("CCOC(=O)c1ccc2c(c1)[n+](=O)c(C(C)=O)c(C(F)(F)F)n2[O-]", "-6.41% (active)"),
    ("COc1ccc(-n2c(=O)n(-c3ccc(-c4nc5ccc(F)cc5s4)cc3)c(=O)c3cccnc32)cc1", "92.2% (inactive)"),
    ("O=C(/C=C/c1ccc([N+](=O)[O-])cc1)c1cccc(Nc2nc(Nc3ccccc3)nc(Nc3ccccc3)n2)c1", "15.6% (inactive)"),
    ("CCOC(=O)C#Cc1c(CC(=O)OCC)nnn1[C@H]1O[C@@H](CO)[C@@H]2OC(C)(C)O[C@@H]21", "11.5% (inactive)"),
    ("O=C(Nc1ncc(Cc2ccc(Cl)cc2)s1)C1=NCCCCN1", "89.1% (inactive)"),
    ("CN(C)c1ccc(/C=N/NC(=O)CSc2nc3sc4c(c3c(=O)n2-c2ccccc2)CCCCC4)cc1", "35% (inactive)"),
    ("Fc1ccc(/C=C/c2cc(/C=C/c3ccc(F)cc3)n(-c3cc(F)cc(F)c3)n2)cc1", "89% (inactive)"),
    ("COCCNC(=O)Cc1cc(-c2ccc(Cl)cc2)n(-c2ccccc2)c1C", "88.6% (inactive)"),
    ("COC(=O)c1cc(-c2ccc(OC)c(OC)c2)[nH]c1N/N=C/c1c(Cl)cccc1Cl", "14.6% (inactive)"),
    ("Cc1nn(C)c2ncnc(Nc3ccccc3Br)c12", "95.6% (inactive)"),
    ("COc1cc(C2CC(c3cccc(Nc4ccncc4)c3)=Nc3c(N)ncnc3N2)cc(OC)c1OC (stereo unspecified)", "57.6% (inactive)"),
    ("O=C(Nc1ccccc1CNc1nc(Nc2ccc(OCCN3CCCC3)cc2)ncc1Cl)NC1CCCCC1", "55.2% (inactive)"),
    ("O=CN1N=C(c2cccc(Nc3ccncc3)c2)CC1c1ccc2c(c1)OCO2 (stereo unspecified)", "81.7% (inactive)"),
    ("COC(=O)c1sc(-c2ccc(C)cc2)cc1O", "96.4% (inactive)"),
    ("Cn1cc(-c2csc(-c3cn(C)c4ccc(F)cc34)n2)c2cnccc21", "-49.3% (active)"),
]
